Test system: LXFL 529
Assay: NCI tumour cell line growth inhibition, 48 h
The source made the active and inactive calls. No stated cut-off is given here; in the data, active = GI50 up to about 1.1 µM and inactive = higher.
Form entry, call: pick from active, inactive

- COMPOUND: "CCC1(O)C(=O)OCc2c1cc1n(c2=O)Cc2cc3c(N)cccc3nc2-1 (centres undefined)"
  DISCRETE LABEL: "active"
- COMPOUND: "CCCCCCCCCCCCCC(=O)NCC(OCC)OCC"
  DISCRETE LABEL: "inactive"
- COMPOUND: "COc1ccc2nc3cc(Cl)ccc3c(Sc3ccc(N)cc3)c2c1"
  DISCRETE LABEL: "inactive"
- COMPOUND: "O=c1[nH]c2cc([N+](=O)[O-])ccc2nc1/C(=N/Nc1ccccc1)C(O)c1ccccc1Cl (centres undefined)"
  DISCRETE LABEL: "inactive"
- COMPOUND: "N#C/N=N/c1cc(Cl)c(/N=N/C#N)cc1Cl"
  DISCRETE LABEL: "inactive"

Here's the next entry for you.
[Q] Which outcome did this test record for the compound CC1(C)CC[C@]2(C(=O)O)CCC3(C)C(=CCC4[C@@]5(C)CC[C@H](OC6OCC(O)C(O)C6OC6OC(CO)C(O)C(O)C6O)C(C)(C)C5CC[C@]43C)C2C1 (some centres undefined) ?
[A] inactive

----------
System: A498
Assay: NCI tumour cell line growth inhibition, 48 h
Activity calls are given as the source filed them. No stated cut-off is given here; in the data, active = GI50 up to about 1.1 µM and inactive = higher.
Can you tell me GI50 for the items I'm about to list?

Solved entries:
- COMPOUND: "COc1cc2c3c(n(C)c(=O)c2cc1OC)-c1cc2c(cc1C3=O)OCO2"
  MEASURED ENDPOINT: "GI50"
  MEASURED VALUE: "46.2 µM (inactive)"
- COMPOUND: "N#CC(Cc1ccccc1Br)N(CCC1=CCCCC1)C(c1ccccc1)c1ccccc1 (stereo not given)"
  MEASURED ENDPOINT: "GI50"
  MEASURED VALUE: "> 100 µM (inactive)"
- COMPOUND: "CCCCCC(/C=C/C1CCC(=O)C1CC#C[Si](C)(C)C)OCc1ccccc1 (stereo not given)"
  MEASURED ENDPOINT: "GI50"
  MEASURED VALUE: "36.3 µM (inactive)"
- COMPOUND: "C=CCSC1=N/C(=C\\c2ccco2)C(=O)N1CC=C"
  MEASURED ENDPOINT: "GI50"
  MEASURED VALUE: "27.2 µM (inactive)"
- COMPOUND: "CC(C)=CCC/C(C)=C/COc1c2ccoc2cc2oc(=O)ccc12"
  MEASURED ENDPOINT: "GI50"
  MEASURED VALUE: "23.1 µM (inactive)"

# map each compound to its GI50
1. CCOC(=O)c1sc2nc(SC)nc3c2c1NCN3c1ccc2c(c1)OCCCO2
2. Nc1nc(Cl)cc(Oc2ccc(Cl)cc2)n1
3. CCOC(=O)[C@@H](NC(=O)OC(C)(C)C)[C@@H](O)C(=O)OCC
4. ClCC1(CCl)COC1
5. COC(=O)C(Cc1c(C2Nc3ccccc3C2CC(NC(=O)CNC(C)=O)C(=O)OC)[nH]c2ccccc12)NC(=O)CNC(C)=O (stereo not given)

[A]
1: 7.98 µM (inactive); 2: > 47.5 µM (inactive); 3: 69.5 µM (inactive); 4: > 100 µM (inactive); 5: > 100 µM (inactive)

----------
System: NCI-H226
Experiment: NCI tumour cell line growth inhibition, 48 h
The source made the active and inactive calls. Rule as the data show it: active = GI50 up to about 1.1 µM and inactive = higher.
MEASURED ENDPOINT: GI50

# map each compound to its GI50
1. c1ccc(CSC2(SCc3ccccc3)CCCC2)cc1
2. CNC(=O)N(CCC#N)CCN(C(=O)N(C)C)c1ccccc1

[A]
1. > 10 µM (inactive)
2. > 100 µM (inactive)

# map each compound to its GI50
1. CC(=O)CC1(OC(=O)C2C(C=C(C)C)C2(C)C)C(=O)Nc2ccccc21 (stereo not given)
2. CCOc1ccc(N2C(=O)C3c4[nH]c5ccccc5c4C4CCC(C(C)(C)C)CC4C3C2=O)cc1 (stereo not given)
3. COc1ccc(C(=O)NC2=C(Cl)C(=O)c3ccccc3C2=O)cc1
4. COc1ccc(Cc2nc3cc(C(F)(F)F)ccc3n2C[C@@H]2CCCN3CCCCC23)cc1 (stereo not given in full)

[A]
["> 100 µM (inactive)", "56.5 µM (inactive)", "1.82 µM (inactive)", "18.1 µM (inactive)"]

# map each compound to its GI50
1. Cc1nc2ccccc2n1C(=O)c1c(F)c(F)c(F)c(F)c1F
2. Cc1ccc(Cl)c2c1NC(=O)/C2=N\Nc1ccccc1[N+](=O)[O-]
3. COC(OC)[C@@H](C)[C@H](O)[C@](C)(O)C1OC(C)(C)OC(C(C)C=C(C)C)C1C (stereo not given in full)

[A]
["18.8 µM (inactive)", "> 100 µM (inactive)", "> 100 µM (inactive)"]

Note to self: GI50 recorded for COc1ccc(N2C(=O)C3c4[nH]c5ccc(C)cc5c4C4CCC(c5ccccc5)CC4C3C2=O)cc1 (stereo not given) was > 100 µM (inactive)

----------
Tested on: HOP-92
Assay: NCI tumour cell line growth inhibition, 48 h
The source made the active and inactive calls. Cut-off read from the data, not from the text of the source: active = GI50 up to about 1.1 µM and inactive = higher.
MEASURED ENDPOINT: GI50

Solved entries:
- MOLECULE: "NC(=S)N1N=C(c2ccccc2O)CC1c1ccccc1 (stereo unspecified)"
  TARGET UNDER TEST: "HOP-92"
  GI50: "17.1 µM (inactive)"
- MOLECULE: "COc1cc2c3c(n(C)c(=O)c2cc1OC)-c1cc2c(cc1C3=O)OCO2"
  TARGET UNDER TEST: "HOP-92"
  GI50: "38.2 µM (inactive)"
- MOLECULE: "COC1=CC(=O)c2c(cc(COP(N)(=O)N(CCCl)CCCl)n2C)C1=O (stereo unspecified)"
  TARGET UNDER TEST: "HOP-92"
  GI50: "1.41 µM (inactive)"

# map each molecule to its GI50
1. CCOC(=O)CCC(C(=O)OCC)n1nc2ccc(Nc3c(C)[n+]([O-])c4cc(Cl)ccc4[n+]3[O-])cc2n1 (stereo unspecified)
2. CC1=C(C(=O)NCCCN(CCO)CCO)CC(C(=O)NCCCN(CCO)CCO)=C(C)N1
3. CNC(=O)OCCN1c2ccccc2Sc2ccccc21
4. O=C1NC(=O)C(COCc2ccccc2)C2=C1SCCC2 (stereo unspecified)
5. O=c1[nH]c(=O)c2c([nH]1)[nH]c1ccccc12
6. CCn1c2ccccc2c2c(-c3ccccc3)cc3c(c21)C(=O)N(c1ccccc1)C3=O
7. c1ccc(-c2cs[s+]c2)cc1
8. COc1ccc(N2C(=O)C3c4[nH]c5ccccc5c4C4C(C)CCCC4C3C2=O)cc1 (stereo unspecified)

[A]
1. 27 µM (inactive)
2. 54.6 µM (inactive)
3. 50.4 µM (inactive)
4. > 100 µM (inactive)
5. > 100 µM (inactive)
6. 34.4 µM (inactive)
7. > 100 µM (inactive)
8. 35.1 µM (inactive)

----------
Tested on: K562
Assay: NCI tumour cell line growth inhibition, 48 h
The source made the active and inactive calls. Rule as the data show it: active = GI50 up to about 1.1 µM and inactive = higher.
MEASURED ENDPOINT: GI50

- COMPOUND: "O=C1C(O)=C(C(C2=C(O)C(=O)c3ccccc3C2=O)c2ccc(Cl)cc2)C(=O)c2ccccc21"
  GI50: "15.2 µM (inactive)"
- COMPOUND: "Cc1ccc(NC(=O)C23CC4CC(CC(C4)C2)C3)c(C(=O)NNC(=O)c2ccc(Cl)cc2)c1"
  GI50: "28.6 µM (inactive)"
- COMPOUND: "O=C(OCC(Cl)(Cl)Cl)N1CC[C@H](C2CCCCC2)C1"
  GI50: "21.1 µM (inactive)"
- COMPOUND: "Cc1ncc([N+](=O)[O-])n1CCNC(=O)CCCn1ccnc1[N+](=O)[O-]"
  GI50: "> 100 µM (inactive)"
- COMPOUND: "CCc1cccc(C(C)CC)c1NC(=O)C(=O)C(CC(=O)Nc1ccc(Cl)c(Cl)c1)C(=O)OC (stereo not given)"
  GI50: "9.79 µM (inactive)"
- COMPOUND: "O=[N+]([O-])/C(C(Cl)=C(Cl)Cl)=C1\\NCCO1"
  GI50: "> 100 µM (inactive)"

# map each compound to its GI50
1. CC(CC[C@@H](O)C(C)(C)O)C1[C@@H](O)CC2(C)C3CC(O)C4C(C)(C)[C@@H](OC5OC(CO)C(O)C(O)C5O)CC[C@@]45C[C@@]35CC[C@]12C (stereo not given in full)
2. O=C(NC(=O)c1c(Cl)nc2sccn12)Nc1ccc(Cl)cc1
3. CSc1ccc2c(c1)C(N1CCN(C)CC1)Cc1ccccc1S2 (stereo not given)

[A]
1: > 10 µM (inactive); 2: > 100 µM (inactive); 3: 1.94 µM (inactive)
